assay: Apparent permeability across human astrocyte monoculture; assay type: in vitro ADME; details: human; astrocytes grown in monoculture
value type: Papp A→B at 90 min, 0.25 μCi/mL (nm/s)
Please respond with the number in nm/s and leave the unit unwritten.

Note Papp A→B at 90 min, 0.25 μCi/mL for the molecule shown: CC(C)NCC(O)COc1cccc2ccccc12 (stereo not shown) [Propranolol]
458

----------
assay: in vitro; conditions: human
value type: Papp A→B at 90 min, 0.25 μCi/mL (×10⁻⁶ cm/s)
Numbers only here, please. The scale is ×10⁻⁶ cm/s.

Retrieve Papp A→B at 90 min, 0.25 μCi/mL measured for CC(C)NCC(O)COc1cccc2ccccc12 (stereo not shown) [Propranolol] and print it.
19.1

From: patent US10877026B2
